- target.desc: lactate dehydrogenase (LDH)
- experiment.description: phage ELISA; LDH coated

| binder | LDH (ratio over background) |
| --- | --- |
| WDWSRFGAQLRGAILGRATGGAPVPYPDPLEPR (peptide, not shown: large carriers) [DGI9-20M-4-A627] | 0.9 |
| FLLQDFIMDAGSFVKPIGVGGAPVPYPDPLEPR (peptide, not shown: large carriers) [DGI9-20M-4-A414] | 1.1 |
| MAGFRGSGLSGYSEARLPRVGAPVPYPDPLEPR (peptide, not shown: large carriers) [DGI9-20M-4-E3] | 1 |
| SRLALSSQHGLSLVAGRRRGGAPVPYPDPLEPR (peptide, not shown: large carriers) [DGI9-20M-4-A12] | 0.9 |
